Data credit: ChEMBL document CHEMBL5550101

- Test system: MCF7
- assay.protocol: Antiproliferative activity against human MCF7 cells assessed as reduction in cell growth incubated for 48 hrs by SRB assay
- Assay type: functional, cell-based
- particulars: MCF7, 48 h
endpoint.label: IC50 (nM)

(P) COc1ccc2nc(Cl)cc(C3CC(c4ccc(C)cc4)=NN3c3nc(-c4ccc(Cl)cc4)cs3)c2c1 (stereo unspecified)
(Q) COc1ccc2nc(Cl)cc(C3CC(c4ccc(C)cc4)=NN3c3nc(-c4ccccc4)cs3)c2c1 (stereo unspecified)
Dear colleague, could you let me know whether P or Q has the lower recorded IC50? Thanks. Mark your selection by writing its label.
Q
(Q: 210 nM, P: 1180 nM)

(a) CCOC(=O)c1sc(N2N=C(c3ccc(C)cc3)CC2c2cc(Cl)nc3ccc(OC)cc23)nc1C (stereo unspecified)
(b) COc1ccc2nc(O)c(C3CC(c4ccc(C)cc4)=NN3C(C)=O)cc2c1 (stereo unspecified)
Dear colleague, could you let me know whether a or b has the lower recorded IC50? Thanks. Mark your selection by writing its label.
b

----------
- System: SR
- assay.protocol: Cytotoxicity against human SR cells assessed as cell growth inhibition by measuring lethal concentration by SRB assay
- Format: functional
- particulars: read-out: LC50 (the source's name)
endpoint.label: CC50 (µM)
Write it as a number; the unit µM goes unstated.

// solved cases for CC50 follow
CCCCCOc1ccc(/C=N/Nc2cc(C)nc3ccc(Cl)cc23)cc1 4.2
CCCOc1ccc(/C=N/Nc2cc(C)nc3ccc(Cl)cc23)cc1 38.6
CCCCCCOc1ccc(/C=N/Nc2cc(C)nc3ccc(Cl)cc23)cc1 8.11
CCOc1ccc(/C=N/Nc2cc(C)nc3ccc(Cl)cc23)cc1 15.5

Let's switch to this compound now.
According to the records, this compound "CCCCCOc1ccc(/C=N/Nc2cc(C)nc3ccc(Br)cc23)cc1" displays CC50 of 21.3

----------
- System: A498
- assay.protocol: Cytotoxicity against human A498 cells assessed as cell growth inhibition by measuring lethal concentration by SRB assay
- Type: functional
endpoint.label: LC50 (µM)
Write it as a number; the unit µM goes unstated.

// solved cases for LC50 follow
CCCOc1ccc(/C=N/Nc2cc(C)nc3ccc(Cl)cc23)cc1 5.79
CCCCCOc1ccc(/C=N/Nc2cc(C)nc3ccc(Cl)cc23)cc1 5.13
CCCCCCOc1ccc(/C=N/Nc2cc(C)nc3ccc(Br)cc23)cc1 6.03
CCOc1ccc(/C=N/Nc2cc(C)nc3ccc(Cl)cc23)cc1 7.01

Sample "CCCCOc1ccc(/C=N/Nc2cc(C)nc3ccc(Br)cc23)cc1" , system: A498. Its LC50 is 5.47

Sample "CCCCCCOc1ccc(/C=N/Nc2cc(C)nc3ccc(Cl)cc23)cc1" , system: A498. Its LC50 is 6.55

Sample "CCCCCOc1ccc(/C=N/Nc2cc(C)nc3ccc(Br)cc23)cc1" , system: A498. Its LC50 is 6.02

Sample "CCCCOc1ccc(/C=N/Nc2cc(C)nc3ccc(Cl)cc23)cc1" , system: A498. Its LC50 is 5.67

----------
- Tested on: MCF7
- assay.protocol: Cytotoxicity against human MCF7 cells assessed as cell growth inhibition by measuring lethal concentration by SRB assay
- Type: functional
Recorded measurements of LC50, one per entry
Write it as a number; the unit µM goes unstated.

// solved cases for LC50 follow
CCCCCCOc1ccc(/C=N/Nc2cc(C)nc3ccc(Br)cc23)cc1 6.84
CCCCCCOc1ccc(/C=N/Nc2cc(C)nc3ccc(Cl)cc23)cc1 6.97
CCCCCOc1ccc(/C=N/Nc2cc(C)nc3ccc(Cl)cc23)cc1 7.04

According to the records, this compound "CCCCOc1ccc(/C=N/Nc2cc(C)nc3ccc(Br)cc23)cc1" displays LC50 of 7.37

According to the records, this compound "CCCCOc1ccc(/C=N/Nc2cc(C)nc3ccc(Cl)cc23)cc1" displays LC50 of 6.87

According to the records, this compound "CCOc1ccc(/C=N/Nc2cc(C)nc3ccc(Cl)cc23)cc1" displays LC50 of 6.6

According to the records, this compound "CCCOc1ccc(/C=N/Nc2cc(C)nc3ccc(Cl)cc23)cc1" displays LC50 of 6.9

According to the records, this compound "CCCCCOc1ccc(/C=N/Nc2cc(C)nc3ccc(Br)cc23)cc1" displays LC50 of 7.93
